# Tested on: Recombinant adenovirus expressing enhanced GFP
# assay-method-text: Recovered adenoviral activity after 7 days at 4° C. or 37° C. with glycinergics or SMM (Example 4)
# Assay type: cell-based
# experimental-setup: one week at 37° C., 0.70 M, sole excipient (no sugars)
property-name: recovered viral activity (%)
Write the value in % as a bare number.

molecule | test-system | recovered viral activity (%)
C[N+](C)(C)CC(=O)O | Recombinant adenovirus expressing enhanced GFP | 45
CN(C)CC(=O)O | Recombinant adenovirus expressing enhanced GFP | 41
NCC(=O)O [glycine, Glycine, reference compound] | Recombinant adenovirus expressing enhanced GFP | 45

Next, consider the following molecule.
For the molecule `CNCC(=O)O` , what recovered viral activity is on record?
49

Numbers sourced from patent US10716859B2.
